Test system: antibodies in sera from SARS patients (sera 1a, 1b, 2, 6, 37, 62, London, SARS-yellow, SARS-green)
Type: binding, human
endpointLabel: Binding of serum 1b to looped/cyclic peptides of protein X4 of SARS-CoV Urbani
Give the value as a plain number.

Look over these answered cases.
constructSequence	testValue
LIVFTSCELYHYQEC	0.6
CADGTRHTYQLRARS	0.4
HTYQLRARSVSPKLF	0.5

// query Please look up its Binding of serum 1b to looped/cyclic peptides of protein X4 of SARS-CoV Urbani: LKEPCPSGTYEGNSP
// result 0.5

// query Do the same for SCELYHYQECVRGTT please
// result 0.4

// query Do the same for ALVFLILCFTIKRKT please
// result 0.5

// query Do the same for LFIRQEEVQQELYSP please
// result 0.5

// query Do the same for IVFTSCELYHYQECV please
// result 0.8

// query Do the same for LLKEPCPSGTYEGNS please
// result 0.6
